Parameter solubility: see the listing below.
Assay: Water solubility
Assay type: physicochemical
Details: water; in H2O

Look over these answered cases.
CN(C)CCNC(=O)c1cc2c(s1)C(=O)c1sccc1C2=O    ≥ 2000 µg/mL
O=C([O][Na+])c1cc2c(s1)C(=O)c1sccc1C2=O    ≥ 10000 µg/mL
O=C(O)c1cc2c(s1)C(=O)c1ccsc1C2=O    4000 µg/mL

Supply recorded solubility for `O=C([O-])CCCC(=O)OCc1cc2c(s1)C(=O)c1sccc1C2=O.[Na+]` here. ≥ 1800 µg/mL

Supply recorded solubility for CC(OC(=O)CCCC(=O)[O-])c1cc2c(s1)C(=O)c1ccsc1C2=O.[Na+] (stereo not shown) here. ≥ 3400 µg/mL

Supply recorded solubility for CC(OCC(=O)[O-])c1cc2c(s1)C(=O)c1ccsc1C2=O.[Na+] (stereo not shown) here. ≥ 6000 µg/mL

Supply recorded solubility for `CN(C)CCNC(=O)c1cc2c(s1)C(=O)c1ccsc1C2=O` here. ≥ 4000 µg/mL

Supply recorded solubility for CC(OC(=O)CCC(=O)[O-])c1cc2c(s1)C(=O)c1sccc1C2=O.[Na+] (stereo not shown) here. ≥ 3000 µg/mL

Supply recorded solubility for `O=C([O-])COCc1cc2c(s1)C(=O)c1sccc1C2=O.[Na+]` here. ≥ 9600 µg/mL

Supply recorded solubility for `O=C(O)c1cc2c(s1)C(=O)c1sccc1C2=O` here. ≥ 10000 µg/mL
